Study system: UniProtKB Q9Y5Y9
Assay method text: Nav1.8 FLIPR HTS
Assay type: cell-based
Reported conditions: HEK293, read-out: Average percent inhibition at 10 μM (Nav1.8)
Where a name gives a salt, the structure may show the parent alone.
Observable: inhibition at 10 µM (%)
Response body: numeric value in %, unit text excluded.

COc1cc2nc(N3CCN(C(=O)C4COc5ccccc5O4)CC3)nc(N)c2cc1OC (stereo not drawn) [Doxazosin mesylate]    76.1
CCCCOc1ccc(C(=O)CCN2CCCCC2)cc1 [Dyclonine hydrochloride]    99
CCN(CC)CCOC(=O)C(c1ccccc1)c1ccccc1 [Adiphenine hydrochloride]    90.4
CN(C)CCCOc1nn(Cc2ccccc2)c2ccccc12 [Benzydamine hydrochloride]    83.6
O=C1[C@H]2CCCC[C@H]2C(=O)N1CCCCN1CCN(c2nsc3ccccc23)CC1    89.7

Sample CS(=O)(=O)c1ccc([C@@H](O)[C@@H](CF)NC(=O)C(Cl)Cl)cc1 — what was its inhibition at 10 µM?
77.5

I am curious: what inhibition at 10 µM value has been reported for CCCCNc1ccc(C(=O)OCCOCCOCCOCCOCCOCCOCCOCCOCCOC)cc1 [Benzonatate] ?
79.9

Which value of inhibition at 10 µM has been reported for CC(=O)SCC(Cc1ccccc1)C(=O)NCC(=O)OCc1ccccc1 (stereo not drawn) in the records?
94.8

I'd like to know its inhibition at 10 µM. The compound in question is O=C(CCCN1CCC2(CC1)C(=O)NCN2c1ccccc1)c1ccc(F)cc1
82

Query (compound): CCCCOc1cc(C(=O)OCCN(CC)CC)ccc1N [Benoxinate hydrochloride] ; field requested: inhibition at 10 µM
83.7

---

As shown below, each of these compounds has a reported inhibition at 10 µM value.
Study system: human KV7.1 (Homo sapiens)
Sequence (P51787 whole entry): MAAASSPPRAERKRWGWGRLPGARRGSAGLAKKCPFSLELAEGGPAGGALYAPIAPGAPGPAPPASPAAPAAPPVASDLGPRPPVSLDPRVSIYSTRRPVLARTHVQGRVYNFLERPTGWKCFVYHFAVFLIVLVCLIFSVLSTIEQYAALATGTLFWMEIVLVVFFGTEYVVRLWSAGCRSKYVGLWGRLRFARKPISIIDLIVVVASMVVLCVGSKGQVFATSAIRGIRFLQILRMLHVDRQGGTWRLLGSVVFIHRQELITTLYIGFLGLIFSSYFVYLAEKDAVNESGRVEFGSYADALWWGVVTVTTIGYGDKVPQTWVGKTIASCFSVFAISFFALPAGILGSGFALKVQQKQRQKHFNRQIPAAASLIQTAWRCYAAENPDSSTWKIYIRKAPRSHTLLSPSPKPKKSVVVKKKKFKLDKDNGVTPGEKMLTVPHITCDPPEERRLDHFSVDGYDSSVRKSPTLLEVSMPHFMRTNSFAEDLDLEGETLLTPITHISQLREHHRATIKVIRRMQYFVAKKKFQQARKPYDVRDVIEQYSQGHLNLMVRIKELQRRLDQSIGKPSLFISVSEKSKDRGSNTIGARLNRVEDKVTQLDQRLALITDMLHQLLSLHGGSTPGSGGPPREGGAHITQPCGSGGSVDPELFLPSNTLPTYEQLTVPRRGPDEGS
Assay method text: KV7.1 86Rb+ efflux HTS
Format: cell-based
Reported conditions: CHO, read-out: Average percent inhibition at 10 μM (KCNQ1)
Structures can show the parent of a compound that is named as a salt.
All answers are understood in %, so give the number only.

Known inhibition at 10 µM results, listed for orientation:
Cc1c(C)c2c(c(C)c1O)CCC(C)(COc1ccc(CC3SC(=O)NC3=O)cc1)O2 (stereo not shown)    73
COC(=O)C1=C(C)NC(C)=C(C(=O)OCC(C)C)C1c1ccccc1[N+](=O)[O-] (stereo not shown)    48

Could you tell me which inhibition at 10 µM is on file for O=C1Nc2ccc(Cl)cc2[C@@](C#CC2CC2)(C(F)(F)F)O1 ?
80.3

inhibition at 10 µM for CCOc1ccc(Cc2nccc3cc(OCC)c(OCC)cc23)cc1OCC [Ethaverine hydrochloride] ?
86.9

---

Study system: Nav1.8 (Homo sapiens)
Assay method text: Nav1.8 FLIPR HTS
Assay type: cell-based
Reported conditions: HEK293, read-out: Average percent inhibition at 10 μM (Nav1.8)
Structures can show the parent of a compound that is named as a salt.
Observable: inhibition at 10 µM (%)
Report the value in % with no unit label.

Illustrative cases are given below, each with its answer.
O=C(Nc1ccccc1)OCC(CN1CCCCC1)OC(=O)Nc1ccccc1 (stereo not shown) [Diperodon hydrochloride]    92.2
CO[C@]12C[C@@H](COC(=O)c3cncc(Br)c3)CN(C)[C@@H]1Cc1cn(C)c3cccc2c13 [Nicergoline]    82.3
[H]/N=C(/NCCCCC)N/N=C/c1c[nH]c2ccc(OC)cc12 [Tegaserod maleate]    98.3

In the following, a different compound is considered.
I have this compound here, CN(C)CC/C=C1/c2ccccc2Sc2ccc(Cl)cc21 [Chlorprothixene hydrochloride] , and I need its recorded inhibition at 10 µM.
77.4

---

Study system: Nav1.8 (Homo sapiens, UniProt Q9Y5Y9)
Sequence (Q9Y5Y9 whole entry): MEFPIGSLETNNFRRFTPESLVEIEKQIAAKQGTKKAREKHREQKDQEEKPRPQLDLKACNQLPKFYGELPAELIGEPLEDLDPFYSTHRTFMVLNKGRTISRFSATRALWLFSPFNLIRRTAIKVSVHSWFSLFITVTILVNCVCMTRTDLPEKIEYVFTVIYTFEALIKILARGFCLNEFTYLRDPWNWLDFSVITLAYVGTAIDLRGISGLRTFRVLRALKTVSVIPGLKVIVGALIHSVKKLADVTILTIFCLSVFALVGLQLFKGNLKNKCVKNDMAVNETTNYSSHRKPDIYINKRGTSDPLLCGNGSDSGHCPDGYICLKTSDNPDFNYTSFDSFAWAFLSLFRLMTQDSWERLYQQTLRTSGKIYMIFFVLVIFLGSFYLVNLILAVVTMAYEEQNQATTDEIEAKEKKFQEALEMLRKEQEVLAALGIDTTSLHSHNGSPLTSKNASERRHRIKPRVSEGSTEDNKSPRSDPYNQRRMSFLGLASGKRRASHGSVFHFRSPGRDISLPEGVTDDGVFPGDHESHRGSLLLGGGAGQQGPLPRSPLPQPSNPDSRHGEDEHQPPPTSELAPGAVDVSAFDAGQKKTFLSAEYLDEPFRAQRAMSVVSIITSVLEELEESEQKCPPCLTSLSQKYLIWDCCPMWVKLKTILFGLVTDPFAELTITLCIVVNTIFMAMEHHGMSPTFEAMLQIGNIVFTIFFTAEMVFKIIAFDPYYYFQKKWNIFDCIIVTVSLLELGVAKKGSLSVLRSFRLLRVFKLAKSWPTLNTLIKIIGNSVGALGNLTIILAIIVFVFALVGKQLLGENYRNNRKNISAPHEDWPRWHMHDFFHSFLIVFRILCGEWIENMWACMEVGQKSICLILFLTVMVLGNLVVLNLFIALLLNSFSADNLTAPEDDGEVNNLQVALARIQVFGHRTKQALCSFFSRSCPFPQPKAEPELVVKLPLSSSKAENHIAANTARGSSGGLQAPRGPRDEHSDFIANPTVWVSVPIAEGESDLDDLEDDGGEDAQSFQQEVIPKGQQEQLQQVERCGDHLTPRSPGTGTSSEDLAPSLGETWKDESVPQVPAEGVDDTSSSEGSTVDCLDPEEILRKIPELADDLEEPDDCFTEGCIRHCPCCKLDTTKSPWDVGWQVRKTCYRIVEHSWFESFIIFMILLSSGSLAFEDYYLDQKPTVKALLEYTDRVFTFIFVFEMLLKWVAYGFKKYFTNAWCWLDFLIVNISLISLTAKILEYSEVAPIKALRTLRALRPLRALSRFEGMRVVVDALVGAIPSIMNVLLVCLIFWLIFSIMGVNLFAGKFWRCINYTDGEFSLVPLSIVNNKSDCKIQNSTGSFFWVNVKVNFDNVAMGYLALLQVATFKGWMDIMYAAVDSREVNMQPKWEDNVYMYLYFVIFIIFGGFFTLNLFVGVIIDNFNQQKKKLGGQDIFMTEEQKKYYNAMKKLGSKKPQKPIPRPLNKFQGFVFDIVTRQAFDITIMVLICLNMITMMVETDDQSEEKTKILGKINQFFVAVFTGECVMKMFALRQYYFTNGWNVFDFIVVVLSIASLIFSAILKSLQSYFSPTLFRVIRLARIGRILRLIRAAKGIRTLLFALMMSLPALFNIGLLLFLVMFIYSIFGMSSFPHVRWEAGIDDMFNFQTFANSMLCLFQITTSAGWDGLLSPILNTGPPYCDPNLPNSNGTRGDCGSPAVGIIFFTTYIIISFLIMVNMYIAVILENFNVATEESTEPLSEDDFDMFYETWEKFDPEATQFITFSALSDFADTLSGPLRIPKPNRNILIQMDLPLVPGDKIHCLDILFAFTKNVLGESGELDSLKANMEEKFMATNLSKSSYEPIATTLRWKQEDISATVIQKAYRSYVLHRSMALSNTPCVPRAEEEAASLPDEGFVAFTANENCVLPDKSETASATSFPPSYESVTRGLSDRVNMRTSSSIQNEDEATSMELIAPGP
Assay method text: Nav1.8 FLIPR HTS
Format: cell-based
Reported conditions: HEK293, read-out: Average percent inhibition at 10 μM (Nav1.8)
Given measured inhibition at 10 µM, output satisfied if it is greater than or equal to 90% and not satisfied if not.

CCC(=O)O[C@@](Cc1ccccc1)(c1ccccc1)[C@@H](C)CN(C)C [Levopropoxyphene napsylate]    satisfied
CN(C(=O)CN(CCO)CC(=O)N(C)C(C)(C)Cc1ccccc1)C(C)(C)Cc1ccccc1    satisfied
Cc1cccc(C)c1NC(=O)CN1CCN(CCCC(c2ccc(F)cc2)c2ccc(F)cc2)CC1    satisfied

Turning now to a further record.
Confirm if inhibition at 10 µM reported for the molecule O=C(CCCN1CCC(n2c(O)nc3ccccc32)CC1)c1ccc(F)cc1 is 90% or above.
not satisfied

---

Study system: Nav1.8 (Homo sapiens, UniProt Q9Y5Y9)
Assay method text: Nav1.8 FLIPR HTS
Format: cell-based
Reported conditions: HEK293, read-out: Average percent inhibition at 10 μM (Nav1.8)
Counter-ions that a name gives are not always drawn.
Observable: inhibition at 10 µM (%)
Give your result in % as a bare value.

Consider the following illustrative entries.
CCCCc1cc2ccccc2c(OCCN(C)C)n1 [Dimethisoquin hydrochloride]    75.5
CNCCC=C1c2ccccc2CCc2ccccc21 [Nortriptyline hydrochloride]    85.9
CN1CCC(=C2c3ccccc3Sc3ccccc32)CC1 [Pimethixene maleate]    88.5

Next compound, inhibition at 10 µM to be filled in.
Looking for the measured inhibition at 10 µM of C[C@H](N)[C@H](O)c1ccc(O)c(O)c1 , can you help?
107

---

Listed below: inhibition at 10 µM values for each entry.
Study system: human KV7.1 (Homo sapiens)
Assay method text: KV7.1 86Rb+ efflux HTS
Assay type: cell-based
Reported conditions: CHO, read-out: Average percent inhibition at 10 μM (KCNQ1)
Counter-ions that a name gives are not always drawn.
Your answer is read as %, so omit the unit and give the number.

Example entries begin here.
Clc1ccc(C(c2ccccc2Cl)C(Cl)Cl)cc1 (stereo not shown) [Mitotane]    49.5
CC(C)c1c(CN(C)C(C)Cc2ccccc2)n(C)n(-c2ccccc2)c1=O (stereo not shown) [Famprofazone]    50.7
COC(=O)C1=C(C)NC(C)=C(C(=O)OC2CCCN(Cc3ccccc3)C2)C1c1cccc([N+](=O)[O-])c1 (stereo not shown) [Benidipine hydrochloride]    51.1
Clc1ccc(C(Cn2ccnc2)OCc2c(Cl)cccc2Cl)c(Cl)c1 (stereo not shown) [Isoconazole]    61.2
Clc1ccc(C(Cn2ccnc2)OCc2ccsc2Cl)c(Cl)c1 (stereo not shown) [Tioconazole]    53.5

For the compound Oc1cc(Cl)ccc1Oc1ccc(Cl)cc1Cl [Triclosan] , what inhibition at 10 µM is on record?
74

Quick one: inhibition at 10 µM for C/C=C(/C(=C/C)c1ccc(O)cc1)c1ccc(O)cc1 [Dienestrol] ?
61.3

Which inhibition at 10 µM is reported for this compound? COC1=C(OC)C(=O)C(CCCCCCCCCCO)=C(C)C1=O [Idebenone]
59

Please look up its inhibition at 10 µM: O=C(OCCOCCO)c1ccccc1Nc1cccc(C(F)(F)F)c1 [Etofenamate]
51.8

// inhibition at 10 µM lookup, key: Clc1ccc(CCC(Cn2ccnc2)Sc2c(Cl)cccc2Cl)cc1 (stereo not shown) [Butoconazole nitrate]
67

---

Study system: UniProt:Q9Y5Y9
Assay method text: Nav1.8 FLIPR HTS
Format: cell-based
Reported conditions: HEK293, read-out: Average percent inhibition at 10 μM (Nav1.8)
Counter-ions that a name gives are not always drawn.
Values of inhibition at 10 µM greater than or equal to 80% map to YES; values below map to NO.

CCCCCCCCNC(C)C(O)c1ccc(SC(C)C)cc1 (centres unmarked)    YES
CCN(CC)CCOC(=O)C(c1ccccc1)C1CCCCC1 (centres unmarked) [Drofenine hydrochloride]    NO
CC(C)(C)NC[C@H](O)c1ccc(O)c(CO)c1 [Levalbuterol hydrochloride]    YES
CCOC(=O)Nc1ccc2c(c1)N(C(=O)CCN1CCOCC1)c1ccccc1S2 [Moricizine hydrochloride]    NO
CCCOc1ccc(C(=O)OCCN(CC)CC)cc1N [Proparacaine hydrochloride]    YES

Confirm if inhibition at 10 µM reported for the compound CC/C(=C(/CC)c1ccc(O)cc1)c1ccc(O)cc1 is 80% or above.
YES

---

Study system: Nav1.8 (Homo sapiens)
Assay method text: Nav1.8 FLIPR HTS
Assay type: cell-based
Reported conditions: HEK293, read-out: Average percent inhibition at 10 μM (Nav1.8)
Structures can show the parent of a compound that is named as a salt.
Recorded inhibition at 10 µM, one value per entry.
Could you give me the number in %? Just the number is fine.

CCC(COC(=O)c1cc(OC)c(OC)c(OC)c1)(c1ccccc1)N(C)C (stereo not drawn)    88.7
O=C(CCCN1CC=C(n2c(=O)[nH]c3ccccc32)CC1)c1ccc(F)cc1    87.6
CCc1nn(CCCN2CCN(c3cccc(Cl)c3)CC2)c(=O)n1CCOc1ccccc1 [Nefazodone hydrochloride]    88.5

Could you share what inhibition at 10 µM was measured for CN(C)CCCN1c2ccccc2Sc2ccccc21 [Promazine hydrochloride] , tested on Nav1.8 (Homo sapiens)?
88.1

Form entry - test system: Nav1.8 (Homo sapiens); read-out: inhibition at 10 µM; compound: CC[C@H](c1ccc(O)cc1)[C@@H](CC)c1ccc(O)cc1
91.6

Which measured inhibition at 10 µM belongs to CC(C)COCC(CN(Cc1ccccc1)c1ccccc1)N1CCCC1 (stereo not drawn) [Bepridil hydrochloride] , tested on Nav1.8 (Homo sapiens)?
89.1
